# assayed-system: Human immunodeficiency virus type 1 reverse transcriptase (Human immunodeficiency virus 1)
# procedure-summary: Inhibition of DNA polymerase activity of HIV1 reverse transcriptase
Exercise: state measured pIC50 for each of the molecules provided.
Answers are plain numbers, as −log10 of the molar value.

| molecule-smiles | readout-kind | quantitative-result |
| --- | --- | --- |
| NC(=O)CC(=O)c1cccc(I)c1 | pIC50 | 4.53 |
| NC(=O)c1sc(N)nc1-c1cccc(-c2ccccc2)c1 | pIC50 | 4.23 |
| NC(=O)c1scnc1-c1ccc(Cl)c(Br)c1 | pIC50 | 4.06 |
| NC(=O)c1sc(N)nc1-c1cccc(C(=O)c2ccccc2)c1 | pIC50 | 4.36 |
| NC(=O)c1[nH]cnc1-c1ccc(Cl)c(Br)c1 | pIC50 | 5.00 |
| CCOP(=O)(OCC)Oc1cccc(C(=O)CC#N)c1 | pIC50 | 4.19 |

Now turn to the next molecule.
Form field pIC50, entry N#CCC(=O)c1cccc(-c2ccccc2)c1 : 4.48

###

# procedure-summary: Inhibition of RNase H activity of HIV1 reverse transcriptase
# Design: species or system Human immunodeficiency virus 1
Exercise: state measured pIC50 for each of the molecules provided.
Give bare numbers, as −log10 of the molar value.

Field: example entries. Status: answers known.
| molecule-smiles | pIC50 |
| --- | --- |
| CCOP(=O)(OCC)Oc1cccc(C(=O)CC#N)c1 | 3.95 |
| N#CCC(=O)c1cccc(C(=O)c2ccccc2)c1 | 4.01 |
| N#CCC(=O)c1cccc(-c2ccccc2)c1 | 4.08 |

Lab note: each molecule below needs its pIC50 filled in.
1. NC(=O)c1scnc1-c1cccc(C(=O)c2ccccc2)c1
2. N#CCC(=O)c1cccc(Cl)c1
3. N#CCC(=O)Cc1cccc(I)c1

4.11
4.55
4.70
